Kindly find below pIC50 information for Dipeptidyl peptidase 9 (Homo sapiens) taken from the literature.
pIC50: −log10 of the molar value.

input: Endpoint output: pIC50 of CC(C)NC(=O)[C@@H](c1ccc(-c2ccc(F)cc2)cc1)[C@H](N)C(=O)N1CC[C@H](F)C1 . Value?
output: < 4.00

input: Endpoint output: pIC50 of N[C@H]1CN(c2ccccn2)CC[C@@H]1c1cc(F)c(F)cc1F . Value?
output: 4.42

input: Endpoint output: pIC50 of CC[C@H](C)[C@H](N)C(=O)N1Cc2ccc(I)cc2C1 . Value?
output: < 4.30

input: Endpoint output: pIC50 of CN(C)C(=O)[C@@H](c1ccc(-c2ccc(F)cc2)cc1)[C@H](N)C(=O)N1CCCCC1 . Value?
output: < 4.00

input: Endpoint output: pIC50 of Cn1nc(C(F)(F)C(F)(F)F)c2c1CCN(C(=O)C[C@H](N)Cc1cc(F)ccc1F)C2 . Value?
output: < 4.00

input: Endpoint output: pIC50 of C[C@H](c1nc(-c2ccc(S(C)(=O)=O)cc2Cl)no1)[C@H](N)C(=O)N1CCCC1 . Value?
output: < 4.00

input: Endpoint output: pIC50 of COc1ccc(-c2ccc([C@H](C)[C@H](N)C(=O)N3CC[C@H](F)C3)cc2)cc1 . Value?
output: < 4.00

input: Endpoint output: pIC50 of C[C@@H](c1cccc(Cl)c1)[C@H](N)C(=O)N1CC[C@H](F)C1 . Value?
output: < 4.00

input: Endpoint output: pIC50 of C[C@@H](c1ccc(-c2cccc(-n3cnnn3)c2)cc1)[C@H](N)C(=O)N1CC[C@H](F)C1 . Value?
output: < 4.00

input: Endpoint output: pIC50 of N[C@@H](CC(=O)N1CCc2nn(CC(F)(F)F)c(C(F)(F)F)c2C1)Cc1cc(F)ccc1F . Value?
output: < 4.00

input: Endpoint output: pIC50 of CC[C@H](C)[C@H](N)C(=O)N1Cc2ccc(C(C)(C)C)cc2C1 . Value?
output: < 4.00

input: Endpoint output: pIC50 of CC#CCn1c(N2CCC[C@@H](N)C2)nc2c1c(=O)n(Cc1cc(C#N)ccc1C(=O)O)c(=O)n2C . Value?
output: < 4.00

input: Endpoint output: pIC50 of N[C@@H](CC(=O)N1CCn2c(nnc2C(F)(F)F)C1)Cc1cc(Cl)ccc1Cl . Value?
output: < 4.00

input: Endpoint output: pIC50 of Cl.N[C@@H](CC(=O)N1CCn2c(nnc2C(F)(F)F)C1Cc1ccccc1F)Cc1cc(F)c(F)cc1F (stereo in doubt; 45b) . Value?
output: 4.41

input: Endpoint output: pIC50 of N[C@H]1Cn2c(nc3cc(C(=O)O)ccc32)C[C@@H]1c1cc(F)c(F)cc1F.O=C(O)C(F)(F)F . Value?
output: < 4.00

input: Endpoint output: pIC50 of CC#CCn1c(N2CCC[C@@H](N)C2)cc(=O)n(Cc2ccc3cc(OC)ccc3n2)c1=O . Value?
output: < 4.00

input: Endpoint output: pIC50 of N[C@@H](CCC(=O)O)C(=O)N1CCCC1 . Value?
output: < 4.00

input: Endpoint output: pIC50 of N[C@@H]1CCCN(c2cc(Nc3cc(Cl)ccn3)n3nccc3n2)C1 . Value?
output: < 4.30

input: Endpoint output: pIC50 of C[C@@H](c1ccc(-c2ccc(C(F)(F)F)cc2)cc1)[C@H](N)C(=O)N1CC[C@H](F)C1 . Value?
output: < 4.00

input: Endpoint output: pIC50 of C[C@H](c1nc(-c2ccccc2OC(F)(F)F)no1)[C@H](N)C(=O)N1CCCC1 . Value?
output: < 4.00

----------
Kindly find below IC50 information for Dipeptidyl peptidase 9 (Homo sapiens, UniProt Q86TI2) taken from the literature.

The examples below pair each entry with its known result.
Cc1[nH]ncc1S(=O)(=O)N(C)[C@H]1CC[C@H]([C@H](N)Cc2cc(F)ccc2F)CC1: > 100 µM
CN(C)C(=O)[C@@H](c1ccc(-c2ccn3ncnc3c2)cc1)[C@H](N)C(=O)N1CCC(F)(F)C1.O=C(O)C(F)(F)F: > 100 µM

input: // fetch Dipeptidyl peptidase 9 (Homo sapiens, UniProt Q86TI2) IC50 for Cc1noc(C)c1S(=O)(=O)N(CCCC(F)(F)F)[C@H]1CC[C@H]([C@H](N)Cc2cc(F)ccc2F)CC1
output: > 100 µM

input: // fetch Dipeptidyl peptidase 9 (Homo sapiens, UniProt Q86TI2) IC50 for CC#CCn1c(N2CCC[C@@H](N)C2)nc2c1c(=O)n(Cc1cc(Br)ccc1C(=O)O)c(=O)n2C
output: > 100 µM

----------
Kindly find below pIC50 information for UniProt:Q86TI2 taken from the literature.
pIC50: −log10 of the molar value.

The examples below pair each entry with its known result.
CC#CCn1c(N2CCC[C@@H](N)C2)nc2c1c(=O)n(Cc1ccccc1C(=O)O)c(=O)n2C: < 4.00
NC(CC(=O)N1CCC[C@H]1C(=O)NCc1ccc(C(=O)O)cc1)Cc1ccc(F)c(F)c1.O=C(O)C(F)(F)F (stereo partly drawn): < 4.00
C[C@@H](c1ccc(-c2ccc(=O)n(CC3CC3)c2)cc1)[C@H](N)C(=O)N1CC[C@H](F)C1: < 4.00
CN(C)C(=O)[C@@H](c1ccc(-c2ccn3nccc3n2)cc1)[C@H](N)C(=O)N1CCC(F)(F)C1.O=C(O)C(F)(F)F: < 4.00
N[C@H]1CN(c2cccnn2)CC[C@@H]1c1cc(F)c(F)cc1F: 4.36
CC#CCn1c(N2CCC[C@@H](N)C2)cc(=O)n(Cc2ccc3cc(Cl)ccc3n2)c1=O: < 4.00
CC(C)Cn1c(C(F)(F)F)nc2c1CCN(C(=O)C[C@H](N)Cc1cc(F)ccc1F)C2: < 4.00

Switching to the query record.
input: Endpoint output: pIC50 of C=CCC1c2nnc(C(F)(F)F)n2CCN1C(=O)C[C@H](N)Cc1cc(F)c(F)cc1F (stereo in doubt; 40a) . Value?
output: 4.39

----------
Kindly find below pIC50 information for Dipeptidyl peptidase 9 (Homo sapiens, UniProt Q86TI2) taken from the literature.
pIC50: −log10 of the molar value.

N[C@@H](CC(=O)N1CCn2c(nnc2C(F)(F)F)C1)Cc1c(F)ccc(F)c1F: < 4.00
Cc1c(-c2ccc([C@H](C)[C@H](N)C(=O)N3CC[C@H](F)C3)cc2)cc(Br)c(=O)n1C: < 4.00
N[C@H]1CN(c2ccc3ncnc(C4CC4)c3n2)CC[C@@H]1c1cc(F)c(F)cc1F: 4.49
CC(=O)Nc1ccc2c(c1)nc1n2C[C@H](N)[C@@H](c2cc(F)c(F)cc2F)C1: < 4.00
N#Cc1ccccc1Cn1c(N2CCC[C@@H](N)C2)nc2sccc2c1=O: < 4.60

input: Endpoint output: pIC50 of N[C@@H](CC(=O)N1CCn2c(nnc2C(F)(F)F)C1C(O)c1ccc(F)cc1)Cc1cc(F)c(F)cc1F (stereo in doubt; 47a) . Value?
output: < 4.00

input: Endpoint output: pIC50 of N[C@@H](CC(=O)N1CCn2c(nnc2C(F)(F)F)C1)Cc1ccc(Cl)c(Cl)c1 . Value?
output: < 4.00

input: Endpoint output: pIC50 of C[C@H]1Cn2c(nnc2C(F)(F)F)CN1C(=O)C[C@H](N)Cc1cc(F)c(F)cc1F . Value?
output: 4.28

input: Endpoint output: pIC50 of Cc1nc2ccc(-c3ccc([C@H](C(=O)N(C)C)[C@H](N)C(=O)N4CC[C@H](F)C4)cc3)cn2n1 . Value?
output: < 4.00

input: Endpoint output: pIC50 of N[C@@H]1CCN(c2ccc(-n3ccc(OCc4ccccc4)cc3=O)cn2)C1 . Value?
output: < 4.00

input: Endpoint output: pIC50 of Cc1ccccc1-c1ccc([C@H](C)[C@H](N)C(=O)N2CC[C@H](F)C2)cc1 . Value?
output: < 4.00

----------
Kindly find below pIC50 information for Dipeptidyl peptidase 9 (Homo sapiens, UniProt Q86TI2) taken from the literature.
pIC50: −log10 of the molar value.

The examples below pair each entry with its known result.
C[C@@H](c1ccc(-c2cccc(-c3noc(O)n3)c2)cc1)[C@H](N)C(=O)N1CC[C@H](F)C1.O=C(O)C(F)(F)F: < 4.00
COc1ccc(NC(=O)CC(C)(C)NCC(=O)N2CCC[C@H]2C#N)cc1OC: < 4.70
Cc1ccc(C(=O)N(C)c2ccc([C@H](C(=O)N(C)C)[C@H](N)C(=O)N3CC[C@H](F)C3)cc2)cc1: < 4.00
CN(C)C(=O)[C@@H](c1ccc(-c2ccc(F)cc2F)cc1)[C@H](N)C(=O)N1CC[C@H](F)C1: < 4.00
C[C@H](N[C@@H](CCc1ccccc1)C(=O)O)C(=O)N1C[C@@H](NC(=O)C[C@H](N)Cc2cc(F)c(F)cc2F)C[C@H]1C(=O)O: 4.36

input: // fetch Dipeptidyl peptidase 9 (Homo sapiens, UniProt Q86TI2) pIC50 for N[C@@H](CC(=O)N1CCn2c(nnc2C(F)(F)F)C1)Cc1cc(F)c(Cl)cc1F
output: < 4.00

input: // fetch Dipeptidyl peptidase 9 (Homo sapiens, UniProt Q86TI2) pIC50 for CN(C)C(=O)CC1c2nnc(C(F)(F)F)n2CCN1C(=O)C[C@H](N)Cc1cc(F)c(F)cc1F.Cl (stereo in doubt; 41b)
output: < 4.00

input: // fetch Dipeptidyl peptidase 9 (Homo sapiens, UniProt Q86TI2) pIC50 for C[C@@H](c1ccc(-c2ccc(=O)n(-c3ccc(F)cc3)c2)cc1)[C@H](N)C(=O)N1CC[C@H](F)C1
output: < 4.00
